Reported log10(CC50 at 48 h) values for a set of compounds
experiment: DevTox GLR-Endo assay: decrease in total cell count, cytotoxicity (AEID 3098, CellCount_dn)
stated.conditions: human, RUES2-GLR cells under directed endoderm differentiation
Structures can show the parent of a compound that is named as a salt.
measure: log10(CC50 at 48 h) (log10 of the value in µM)

>  <compound>
COc1cc2c(Nc3ccc(Br)cc3F)ncnc2cc1OCC1CCN(C)CC1 [Vandetanib]

>  <log10(CC50 at 48 h)>
0.64

$$$$
>  <compound>
COc1ccc2nc([S@@+]([O-])Cc3ncc(C)c(OC)c3C)[nH]c2c1 [Esomeprazole]

>  <log10(CC50 at 48 h)>
1.59

$$$$
>  <compound>
CCN(CC)CCNC(=O)c1c(C)[nH]c(/C=C2\C(=O)Nc3ccc(F)cc32)c1C [Sunitinib]

>  <log10(CC50 at 48 h)>
0.10

$$$$
>  <compound>
CNC(=O)c1cc(Oc2ccc(NC(=O)Nc3ccc(Cl)c(C(F)(F)F)c3)cc2)ccn1 [Sorafenib]

>  <log10(CC50 at 48 h)>
-0.21

$$$$
>  <compound>
CC1=C(/C=C/C(C)=C/C=C/C(C)=C/C(=O)O)C(C)(C)CCC1

>  <log10(CC50 at 48 h)>
0.74

$$$$
>  <compound>
[H]/N=C(/NCCCCC)N/N=C/c1c[nH]c2ccc(OC)cc12 [Tegaserod Maleate]

>  <log10(CC50 at 48 h)>
0.70

$$$$
>  <compound>
Oc1cc(O)c2c(c1)O[C@H](c1ccc(O)c(O)c1)[C@@H](O)C2 [Cianidanol]

>  <log10(CC50 at 48 h)>
2.29

$$$$
>  <compound>
Cc1nc2sccn2c(=O)c1CCN1CCC(=C(c2ccc(F)cc2)c2ccc(F)cc2)CC1 [Ritanserin]

>  <log10(CC50 at 48 h)>
0.98

$$$$
>  <compound>
NC(=O)N1c2ccccc2C=Cc2ccccc21 [Carbamazepine]

>  <log10(CC50 at 48 h)>
2.14

$$$$

###

Test system: RUES2-GLR cells
experiment: in vitro
stated.conditions: human, 48 h
So basically: Cell Count ACC at 90 µM or higher? That is True. Lower than 90 µM? That is False.

>  <molecule>
CCCC(CCC)C(=O)O [Valproic Acid]

>  <assayed.system>
RUES2-GLR cells

>  <assigned.label>
True

$$$$
>  <molecule>
Nc1nc2c(ncn2COCCO)c(=O)[nH]1 [Acyclovir]

>  <assayed.system>
RUES2-GLR cells

>  <assigned.label>
True

$$$$
>  <molecule>
CC(C)Cc1ccc(C(C)C(=O)O)cc1 (centres unmarked) [Ibuprofen]

>  <assayed.system>
RUES2-GLR cells

>  <assigned.label>
True

$$$$
>  <molecule>
O=C1NC(=O)C(c2ccccc2)(c2ccccc2)N1

>  <assayed.system>
RUES2-GLR cells

>  <assigned.label>
True

$$$$
>  <molecule>
CC[C@H](C)C(=O)O[C@H]1C[C@@H](C)C=C2C=C[C@H](C)[C@H](CC[C@@H]3C[C@@H](O)CC(=O)O3)[C@H]21 [Lovastatin]

>  <assayed.system>
RUES2-GLR cells

>  <assigned.label>
False

$$$$
>  <molecule>
COc1ccc2c(c1)c(CC(=O)O)c(C)n2C(=O)c1ccc(Cl)cc1 [Indomethacin]

>  <assayed.system>
RUES2-GLR cells

>  <assigned.label>
False

$$$$
>  <molecule>
Nc1nc2ncc(CNc3ccc(C(=O)N[C@@H](CCC(=O)O)C(=O)O)cc3)nc2c(=O)[nH]1 [Folic Acid]

>  <assayed.system>
RUES2-GLR cells

>  <assigned.label>
True

$$$$
